assay: Time course of conversion to indirubin in FaSSGF at 37° C.; type: physicochemical; details: FaSSGF (Example 4; table title prints FaSSIF) 37° C., 2 h
Let's look at some compounds and their measured indirubin.

# example entries with known answers
>>> result("CN(C)CCN(CCN(C)C)CN1C(=O)/C(=C2\\Nc3ccccc3C2=O)c2ccccc21 [drawing 271]")
"91%"
>>> result("O=C1/C(=C2/C(=O)N(CN3CCC3)c3ccccc32)Nc2ccccc21 [drawing 275]")
"24%"
>>> result("CN(C)C1CCN(CN2C(=O)/C(=C3\\Nc4ccccc4C3=O)c3ccccc32)CC1 [drawing 272]")
"44%"

As a next step, examine the compound that follows.
What does the record list as indirubin for CNCCNC(=O)N1C(=O)/C(=C2\Nc3ccccc3C2=O)c2ccccc21.Cl [drawing 279] ?
0%

* * *

Let's look at some molecules and their measured starting material (prodrug compound).
assay: Time course of conversion to indirubin in FaSSGF at 37° C.; format: physicochemical; conditions: FaSSGF (Example 4; table title prints FaSSIF) 37° C., 1 h
Express your answer in %, writing the number without its unit.

>>> readout_number("O=C1/C(=C2/C(=O)N(C(=O)NC3CCOCC3)c3ccccc32)Nc2ccccc21 [drawing 278]")
82
>>> readout_number("CN(C)CCN(CCN(C)C)CN1C(=O)/C(=C2\\Nc3ccccc3C2=O)c2ccccc21 [drawing 271]")
3
>>> readout_number("O=C1/C(=C2/C(=O)N(CN3CCOCC3)c3ccccc32)Nc2ccccc21 [drawing 276]")
85

As a next step, examine the molecule that follows.
What does the record list as starting material (prodrug compound) for CCN(CC)CN1C(=O)/C(=C2\Nc3ccccc3C2=O)c2ccccc21 [drawing 267] ?
0

* * *

test: Time course of conversion to indirubin in FaSSGF at 37° C.; type: physicochemical; settings: FaSSGF (Example 4; table title prints FaSSIF) 37° C., 2 h
Let's look at some compounds and their measured indirubin.

>>> result("CN(C)CCN(C)CN1C(=O)/C(=C2\\Nc3ccccc3C2=O)c2ccccc21 [drawing 268]")
"95%"
>>> result("O=C1/C(=C2/C(=O)N(CN3CCCCC3)c3ccccc32)Nc2ccccc21 [drawing 269]")
"99%"
>>> result("CC(=O)N1CCN(CN2C(=O)/C(=C3\\Nc4ccccc4C3=O)c3ccccc32)CC1 [drawing 281]")
"3%"
>>> result("CN1CCN(CN2C(=O)/C(=C3\\Nc4ccccc4C3=O)c3ccccc32)CC1 [drawing 273]")
"24%"
>>> result("O=C1/C(=C2/C(=O)N(COS(=O)(=O)O)c3ccccc32)Nc2ccccc21 [drawing 277]")
"0%"
>>> result("O=C1/C(=C2/C(=O)N(CN3CCOCC3)c3ccccc32)Nc2ccccc21 [drawing 276]")
"11%"

As a next step, examine the compound that follows.
What does the record list as indirubin for CCN(CC)CN1C(=O)/C(=C2\Nc3ccccc3C2=O)c2ccccc21 [drawing 267] ?
100%

* * *

assay: Time course of conversion to indirubin in FaSSGF at 37° C.;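 further: compound incubated in fasted state simulated gastric fluid, species in samples quantified by UPLC-MS with UV (210–400 nm) and ELS detection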; format: physicochemical; details: FaSSGF (Example 4; table title prints FaSSIF) 37° C., 24 h
Value Type: starting material (prodrug compound) (%)
Express your answer in %, writing the number without its unit.

# example entries with known answers
>>> readout_number("CN(C)CCN(C)CN1C(=O)/C(=C2\\Nc3ccccc3C2=O)c2ccccc21 [drawing 268]")
0
>>> readout_number("CCN(CC)CN1C(=O)/C(=C2\\Nc3ccccc3C2=O)c2ccccc21 [drawing 267]")
0
>>> readout_number("O=C1/C(=C2/C(=O)N(CO)c3ccccc32)Nc2ccccc21 [drawing 274]")
0

What does the record list as starting material (prodrug compound) for O=C1/C(=C2/C(=O)N(C(=O)NC3CCOCC3)c3ccccc32)Nc2ccccc21 [drawing 278] ?
86

What does the record list as starting material (prodrug compound) for O=C1/C(=C2/C(=O)N(CN3CCOCC3)c3ccccc32)Nc2ccccc21 [drawing 276] ?
68

What does the record list as starting material (prodrug compound) for CN(C)CCN(CCN(C)C)CN1C(=O)/C(=C2\Nc3ccccc3C2=O)c2ccccc21 [drawing 271] ?
1

What does the record list as starting material (prodrug compound) for O=C1/C(=C2/C(=O)N(CN3CCC3)c3ccccc32)Nc2ccccc21 [drawing 275] ?
74

What does the record list as starting material (prodrug compound) for O=C1/C(=C2/C(=O)N(CN3CCCCC3)c3ccccc32)Nc2ccccc21 [drawing 269] ?
1

What does the record list as starting material (prodrug compound) for CNCCNC(=O)N1C(=O)/C(=C2\Nc3ccccc3C2=O)c2ccccc21.Cl [drawing 279] ?
100
